The origin of these recorded values is patent US8685970B2.

tgt: SIRT1 (Homo sapiens, UniProt Q96EB6)
Sequence (Q96EB6 whole entry): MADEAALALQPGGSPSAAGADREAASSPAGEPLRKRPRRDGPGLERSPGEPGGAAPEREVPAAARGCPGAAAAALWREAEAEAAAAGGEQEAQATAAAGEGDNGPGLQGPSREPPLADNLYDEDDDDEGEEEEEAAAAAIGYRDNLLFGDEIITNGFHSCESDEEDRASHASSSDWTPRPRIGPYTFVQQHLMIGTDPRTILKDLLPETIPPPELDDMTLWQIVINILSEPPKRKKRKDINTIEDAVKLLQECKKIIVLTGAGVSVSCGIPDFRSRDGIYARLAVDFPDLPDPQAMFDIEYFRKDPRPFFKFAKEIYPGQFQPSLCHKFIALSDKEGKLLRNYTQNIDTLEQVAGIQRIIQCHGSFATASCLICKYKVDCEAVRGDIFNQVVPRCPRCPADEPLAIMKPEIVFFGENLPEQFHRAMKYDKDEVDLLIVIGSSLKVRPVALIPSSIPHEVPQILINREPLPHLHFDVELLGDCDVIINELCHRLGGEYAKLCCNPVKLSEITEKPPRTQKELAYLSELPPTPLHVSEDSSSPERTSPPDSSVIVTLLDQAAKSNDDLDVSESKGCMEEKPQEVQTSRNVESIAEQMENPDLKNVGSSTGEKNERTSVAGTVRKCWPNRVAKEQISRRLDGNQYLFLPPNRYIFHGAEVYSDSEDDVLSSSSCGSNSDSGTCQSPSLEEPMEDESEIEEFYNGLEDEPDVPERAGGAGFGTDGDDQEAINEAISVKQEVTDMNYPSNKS
assay.method.text: Mass spectrometry based SIRT1 deacetylation assay (activation)
Format: biochemical
assay.context: 10 nM SIRT1, 0.5 μM peptide substrate, 120 μM βNAD+, 25 min at 25° C.
Source text: A mass spectrometry based assay was used to identify modulators of SIRT1 activity. The mass spectrometry based assay utilizes a peptide having 20 amino acid residues as follows: Ac-EE-K (biotin)-GQSTSSHSK (Ac)N1eSTEG-K(5TMR)-EE-NH2 (SEQ ID NO: 1) wherein K(Ac) is an acetylated lysine residue and Nle is a norleucine. The peptide is labeled with the fluorophore 5TMR (excitation 540 nm/emission 580 nm) at the C-terminus. The sequence of the peptide substrate is based on p53 with several modifications. […]
measurement.label: EC1.5 (concentration of test compound that results in 150% activation of SIRT1)

- compound: "O=C(Nc1cccc2ccc(-c3ccc(F)c(C(F)(F)F)c3)nc12)c1cnccn1"
  measurement: "C (EC1.5>25 uM)"
- compound: "Fc1ccc(-c2ccc3cccc(NCc4cccnc4)c3n2)cc1C(F)(F)F"
  measurement: "C (EC1.5>25 uM)"
- compound: "FC(F)(F)Oc1cccc(-c2ccc3cccc(NCc4ccccn4)c3n2)c1"
  measurement: "C (EC1.5>25 uM)"
